System: wild type (RH) strain of T. gondii
Assay: Anti-toxoplasmic activity in tissue culture
Assay type: cell-based, Toxoplasma gondii
Settings: wild type (RH) in human fibroblasts, 10 μM compound
quantity: percent survival of parasite (%)

compound="OCC1CC(n2cnc3c(SCc4ccc(OC(F)(F)F)cc4)ncnc32)C(O)C1O (stereo not shown) [Compound 16]" target_of_assay="wild type (RH) strain of T. gondii" quantity="percent survival of parasite" result=53.6
compound="Cc1ccc(CSc2ncnc3c2ncn3C2CC(CO)C(O)C2O)c(C)c1C (stereo not shown) [Compound 21]" target_of_assay="wild type (RH) strain of T. gondii" quantity="percent survival of parasite" result=32.7
compound="OCC1CC(n2cnc3c(SCc4ccccc4F)ncnc32)C(O)C1O (stereo not shown) [Compound 2]" target_of_assay="wild type (RH) strain of T. gondii" quantity="percent survival of parasite" result=93.7
compound="Nc1ccc(S(=O)(=O)Nc2ncccn2)cc1 [Compound 23, Sulfadiazine, reference compound]" target_of_assay="wild type (RH) strain of T. gondii" quantity="percent survival of parasite" result=58.0

====

Test system: uninfected human foreskin fibroblasts
Test: Host toxicity, MTT assay on uninfected host cells
Settings: infection: None, 10 μM compound
quantity: host-toxicity (survival of uninfected host cells) (%)

compound="Cc1cccc(CSc2ncnc3c2ncn3C2CC(CO)C(O)C2O)c1 (stereo not shown)" unit_text=% result=100
compound="Cc1ccc(CSc2ncnc3c2ncn3C2CC(CO)C(O)C2O)c(C)c1C (stereo not shown)" unit_text=% result=100
compound="OCC1CC(n2cnc3c(SCc4ccc(Cl)cc4)ncnc32)C(O)C1O (stereo not shown)" unit_text=% result=100
compound="OCC1CC(n2cnc3c(SCc4ccc(OC(F)(F)F)cc4)ncnc32)C(O)C1O (stereo not shown)" unit_text=% result=98.2
compound="OCC1CC(n2cnc3c(SCc4cccc(C(F)(F)F)c4)ncnc32)C(O)C1O (stereo not shown)" unit_text=% result=100
compound="OCC1CC(n2cnc3c(SCc4ccc(Br)cc4)ncnc32)C(O)C1O (stereo not shown)" unit_text=% result=100
compound="OCC1CC(n2cnc3c(SCc4ccc(Cl)c(Cl)c4)ncnc32)C(O)C1O (stereo not shown)" unit_text=% result=100

====

Test system: wild type (RH) strain of T. gondii
Assay: Anti-toxoplasmic activity in tissue culture
Type: cell-based, Toxoplasma gondii
Settings: wild type (RH) in human fibroblasts, 5 μM compound
Label Criterion not met if percent survival of parasite falls below 90%; label Criterion met in every other case.

compound="OCC1CC(n2cnc3c(SCc4ccc(Br)cc4)ncnc32)C(O)C1O (stereo not shown)" target_of_assay="wild type (RH) strain of T. gondii" class="Criterion not met"
compound="OCC1CC(n2cnc3c(SCc4ccccc4F)ncnc32)C(O)C1O (stereo not shown)" target_of_assay="wild type (RH) strain of T. gondii" class="Criterion met"
compound="Nc1ccc(S(=O)(=O)Nc2ncccn2)cc1 [Compound 23, Sulfadiazine, reference compound]" target_of_assay="wild type (RH) strain of T. gondii" class="Criterion met"
compound="Cc1ccccc1CSc1ncnc2c1ncn2C1CC(CO)C(O)C1O (stereo not shown)" target_of_assay="wild type (RH) strain of T. gondii" class="Criterion not met"
compound="N#Cc1ccc(CSc2ncnc3c2ncn3C2CC(CO)C(O)C2O)cc1 (stereo not shown)" target_of_assay="wild type (RH) strain of T. gondii" class="Criterion met"
compound="Cc1ccc(CSc2ncnc3c2ncn3C2CC(CO)C(O)C2O)cc1 (stereo not shown)" target_of_assay="wild type (RH) strain of T. gondii" class="Criterion not met"
compound="OCC1CC(n2cnc3c(SCc4ccccc4)ncnc32)C(O)C1O (stereo not shown)" target_of_assay="wild type (RH) strain of T. gondii" class="Criterion not met"
